src = patent US11384069B2

# assay-name: Metabolic stability evaluation, mouse liver microsome experiment
# Type: in vitro ADME
# stated-conditions: liver microsomes, pH 7.4, 1 μM compound, 0.5 mg/mL protein, 37° C.
Threshold check on microsomal CLint at 1 μM: strictly below 200 µL/min/mg is 1.0; on or above 200 µL/min/mg is 0.0.

[2H]C1([2H])N(CCOc2ccc(Nc3ncc(C)c(Nc4cccc(S(=O)(=O)NC(C)(C)C)c4)n3)cc2)C([2H])([2H])C([2H])([2H])C1([2H])[2H] | 1.0
[2H]c1nc(Nc2ccc(OCCN3CCCC3)cc2)nc(Nc2cccc(S(=O)(=O)NC(C)(C)C)c2)c1C([2H])([2H])[2H] | 1.0
[2H]C([2H])(Oc1ccc(Nc2ncc(C)c(Nc3cccc(S(=O)(=O)NC(C)(C)C)c3)n2)cc1)C([2H])([2H])N1CCCC1 | 1.0

Field: next molecule
**Query** Lab note: confirm whether the reported microsomal CLint at 1 μM for this molecule is below 200 µL/min/mg, equality not counting. molecule: Cc1cnc(Nc2ccc(OCCN3CCCC3)cc2)nc1Nc1cccc(S(=O)(=O)NC(C)(C)C)c1 [Fedratinib, reference compound]
**Result** 0.0
